# Applied Conditions: in isopropanol, 308.15 K
Readout Type: solubility (mole fraction)
Write no unit; give the number alone.

Reported solubility (mole fraction), molecule C=C(C)[C@@H]1CC[C@]2(C(=O)O)CC[C@]3(C)[C@H](CC[C@@H]4[C@@]5(C)CCC(=O)C(C)(C)[C@@H]5CC[C@]43C)[C@@H]12 : ____
0.0114

----------
# Applied Conditions: in ethanol, 288.15 K
Readout Type: solubility (mole fraction)
Answer as a number with no unit attached.

Can you share its solubility (mole fraction)? I mean this molecule: C=C(C)[C@@H]1CC[C@]2(C(=O)O)CC[C@]3(C)[C@H](CC[C@@H]4[C@@]5(C)CCC(=O)C(C)(C)[C@@H]5CC[C@]43C)[C@@H]12
0.00454

----------
# Applied Conditions: in 2-methoxyethanol, 308.15 K
Readout Type: solubility (mole fraction)

Query (compound): C=C(C)[C@@H]1CC[C@]2(C(=O)O)CC[C@]3(C)[C@H](CC[C@@H]4[C@@]5(C)CCC(=O)C(C)(C)[C@@H]5CC[C@]43C)[C@@H]12 ; field requested: solubility (mole fraction)
0.0127

Source listed as BigSolDB 2.1.
